System: Fibroblast
Experiment: Multiplex assay against human fibroblast
Format: toxicity, cell-based
Details: 24 h, 1 µM, compound concentration 1 uM, replicate 2
observable: Population Mitotic Cells (%)
The response must be a number in % with no trailing unit.

The value of Population Mitotic Cells (%) recorded for O=C(Nc1cc(-c2ccccc2)nn1-c1ccccc1F)c1ccc([N+](=O)[O-])cc1 when tested on Fibroblast reads 50

The value of Population Mitotic Cells (%) recorded for Cc1nn(C)c2nc(NNC(=O)Nc3cc(Cl)nc(Cl)c3)cc(C(C)C)c12 when tested on Fibroblast reads 37

The value of Population Mitotic Cells (%) recorded for Cl.Cl.OCCOCCN1CCN(C(c2ccccc2)c2ccc(Cl)cc2)CC1 (stereo not drawn) [HYDROXYZINE HYDROCHLORIDE] when tested on Fibroblast reads 55

The value of Population Mitotic Cells (%) recorded for CN(C)C(=O)Cn1cc(-c2ccc(-c3nnc4ccccn34)cc2)cn1 when tested on Fibroblast reads 45

The value of Population Mitotic Cells (%) recorded for Cc1cc(=O)n(C)c2cc(N3C(=O)CC[C@H](NS(=O)(=O)CC(C)C)[C@H]3c3ccc(Cl)cc3)ccc12 when tested on Fibroblast reads 50

The value of Population Mitotic Cells (%) recorded for OCCCNc1cc(-c2ccnc(Nc3cccc(Cl)c3)n2)ccn1 when tested on Fibroblast reads 53

The value of Population Mitotic Cells (%) recorded for C[C@@H]1CC(=O)Nc2cccc(-c3ccc4c(c3)c(-c3cnn(C)c3)nn4C)c2N1 when tested on Fibroblast reads 65

The value of Population Mitotic Cells (%) recorded for COCCn1c(C)c(C)s/c1=N\C(=O)C1C(C)(C)C1(C)C when tested on Fibroblast reads 45

The value of Population Mitotic Cells (%) recorded for CCCCCCNC(=O)Nc1ccc(S(=O)(=O)Nc2ccc(CCNC[C@H](O)COc3ccc(O)cc3)cc2)cc1 [L-755507] when tested on Fibroblast reads 60

The value of Population Mitotic Cells (%) recorded for COC(c1ccccc1)(c1ccccc1)[C@H](Oc1nc(C)cc(C)n1)C(=O)O [AMBRISENTAN] when tested on Fibroblast reads 65

The value of Population Mitotic Cells (%) recorded for Cc1sc2c(c1C)C(c1ccc(Cl)cc1)=N[C@H](CC(=O)OC(C)(C)C)c1nnc(C)n1-2 when tested on Fibroblast reads 53

The value of Population Mitotic Cells (%) recorded for CN1CCN2c3ccccc3Cc3ccccc3C2C1.Cl (stereo not drawn) [MIANSERIN HYDROCHLORIDE] when tested on Fibroblast reads 63

The value of Population Mitotic Cells (%) recorded for Cc1ccc(OCC(O)C(C)NC(C)C)c2c1CCC2.Cl (stereo not drawn) when tested on Fibroblast reads 80

The value of Population Mitotic Cells (%) recorded for N[C@](CC1c2ccccc2Oc2ccccc21)(C(=O)O)[C@H]1C[C@@H]1C(=O)O when tested on Fibroblast reads 66

The value of Population Mitotic Cells (%) recorded for CC(C)(C)c1ccc(CSc2cnn(C(C)(C)C)c(=O)c2Cl)cc1 [PYRIDABEN] when tested on Fibroblast reads 63

The value of Population Mitotic Cells (%) recorded for Cc1cc(NC(=O)NCCN2CCC(O)(Cc3ccccc3)CC2)c2ccccc2n1 [PALOSURAN] when tested on Fibroblast reads 60

The value of Population Mitotic Cells (%) recorded for Cn1cc(C(=O)OCC2CCN(CCNS(C)(=O)=O)CC2)c2ccccc21 when tested on Fibroblast reads 69

The value of Population Mitotic Cells (%) recorded for S=C(NCCCc1c[nH]cn1)NCCCN(Cc1ccc(Cl)c(Cl)c1)c1ccc(Br)cn1 when tested on Fibroblast reads 76

This collection of values is drawn from ChEMBL document CHEMBL5058577.
